Target: UniProt:O00487
Sequence (O00487 whole entry, looked up): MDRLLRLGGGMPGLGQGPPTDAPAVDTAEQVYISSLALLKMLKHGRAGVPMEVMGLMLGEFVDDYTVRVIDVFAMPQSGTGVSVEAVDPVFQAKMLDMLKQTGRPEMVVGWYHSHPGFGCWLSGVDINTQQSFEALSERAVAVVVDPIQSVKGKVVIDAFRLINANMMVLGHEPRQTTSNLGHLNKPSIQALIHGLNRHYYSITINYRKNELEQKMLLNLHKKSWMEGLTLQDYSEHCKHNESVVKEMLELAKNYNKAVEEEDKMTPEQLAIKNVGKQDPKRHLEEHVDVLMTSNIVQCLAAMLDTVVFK
Test: Rpn11 activity assay (fluorescence polarization, Ub4-pepOG cleavage by 26S proteasome)
Format: biochemical
Conditions: Table 2; 1 mM DTT in assay reduces disulfides to monomeric active species
Source text: Candidate compounds according to embodiments of the present invention were synthesized as described herein. […] In brief, this Rpn11 bioassay employs a fluorescent polarization readout based on the ability of the 26S proteasome to cleave the protein substrate including four tandem ubiquitin proteins fused to a peptide having a unique cysteine labeled with a fluorophore. […] Accordingly, inhibition of fluorescence correlates with inhibition of Rpn11. […]
Record form. Attribute: IC50. Fill in for each entry.
Write the number in nM without appending the unit.

Which IC50 reading was recorded for the molecule NC(=O)c1cnc2c(SSc3cccc4cc(C(N)=O)cnc34)cccc2c1 [Compound 1] ?
1000

Which IC50 reading was recorded for the molecule O=C(NCc1cccs1)c1cnc2c(SSc3cccc4cc(C(=O)NCc5cccs5)cnc34)cccc2c1 [Compound 8] ?
800

Which IC50 reading was recorded for the molecule O=C(NCc1ccccc1)c1cnc2c(SSc3cccc4cc(C(=O)NCc5ccccc5)cnc34)cccc2c1 [Compound 16] ?
1100

Which IC50 reading was recorded for the molecule O=C(NCc1ccc(N2CCOCC2)cc1)c1cnc2c(SSc3cccc4cc(C(=O)NCc5ccc(N6CCOCC6)cc5)cnc34)cccc2c1 [Compound 21] ?
800

Which IC50 reading was recorded for the molecule O=C(NCCN1CCOCC1)c1cnc2c(SSc3cccc4cc(C(=O)NCCN5CCOCC5)cnc34)cccc2c1 [Compound 22] ?
6400

Which IC50 reading was recorded for the molecule O=C(NCCc1ccco1)c1ccnc2c(SSc3cccc4c(C(=O)NCCc5ccco5)ccnc34)cccc12 [Compound 26] ?
1000

Which IC50 reading was recorded for the molecule O=C(NCc1ccccn1)c1cnc2c(SSc3cccc4cc(C(=O)NCc5ccccn5)cnc34)cccc2c1 [Compound 13] ?
3900

Which IC50 reading was recorded for the molecule O=C(NCc1ccc(C(F)(F)F)cc1)c1cnc2c(SSc3cccc4cc(C(=O)NCc5ccc(C(F)(F)F)cc5)cnc34)cccc2c1 [Compound 18] ?
700

Which IC50 reading was recorded for the molecule O=C(NCc1ccco1)c1cnc2c(SSc3cccc4cc(C(=O)NCc5ccco5)cnc34)cccc2c1 [Compound 7] ?
900

Which IC50 reading was recorded for the molecule O=C(NCc1ccncc1)c1cnc2c(SSc3cccc4cc(C(=O)NCc5ccncc5)cnc34)cccc2c1 [Compound 15] ?
200

Which IC50 reading was recorded for the molecule O=C(CCCC[C@@H]1SC[C@@H]2NC(=O)N[C@@H]21)NCCOCCOCCOCCNC(=O)c1cnc2c(S)cccc2c1 [Compound 32] ?
400

Which IC50 reading was recorded for the molecule O=C(NCc1ccc2c(c1)OCO2)c1cnc2c(SSc3cccc4cc(C(=O)NCc5ccc6c(c5)OCO6)cnc34)cccc2c1 [Compound 20] ?
900
